Test system: velvetleaf (Abutilon theophrasti)
run description: Test A pre-/postemergence: velvetleaf
Assay type: in vivo
measurement setup: Postemergence, 500 g ai/ha; 0 to 100 scale, 0 is no effect, 100 is complete control
Readings of Velvetleaf plant response rating for the listed compounds
Answer as a number with no unit attached.

Example results:
CCc1nn(-c2ccc(C(F)(F)F)cc2)nc1Oc1ccnc(C(F)(F)F)c1 [Compound 169]    100
CC(=O)Oc1nn(-c2ccc(C(F)(F)F)cc2)nc1Cc1ccnc(C(F)(F)F)c1 [Compound 197]    30
CCOc1nn(-c2ccc(F)cc2F)nc1Cc1ccnc(C(F)(F)F)c1 [Compound 190]    100
CCCc1nn(-c2ccc(F)cc2F)nc1Oc1ccnc(C(F)(F)F)c1 [Compound 179]    100
CCCc1nn(-c2ccc(F)cc2)nc1Oc1ccnc(C(F)(F)F)c1 [Compound 168]    100

Moving on to another compound below.
## Task So what does the record say about Velvetleaf plant response rating for CCCOc1nn(-c2ccc(C(F)(F)F)cc2)nc1Cc1ccnc(C(F)(F)F)c1 [Compound 191] ?
## Result 100

###

Test system: bermudagrass (Cynodon dactylon)
run description: Test C pre-/postemergence: bermudagrass
Assay type: in vivo
measurement setup: Postemergence, 62 g ai/ha; scale 0 to 100 (0 no effect, 100 complete control)
Readings of Plant response rating, Bermudagrass for the listed compounds
Answer as a number with no unit attached.

Example results:
COc1nn(-c2ccc(C(F)(F)F)cc2)nc1Cc1ccnc(C(F)F)c1    45
COc1nn(-c2ccc(C(F)(F)F)cc2)nc1Cc1ccnc(C(F)(F)F)c1    15
FC(F)(F)COc1nn(-c2ccc(C(F)(F)F)cc2)nc1Cc1ccnc(C(F)(F)F)c1    15

## Task So what does the record say about Plant response rating, Bermudagrass for Cc1nn(-c2ccc(C(F)(F)F)cn2)nc1Cc1cccc(C(F)(F)F)c1 ?
## Result 40

###

System: corn (Zea mays)
run description: Test A pre-/postemergence: corn
Format: in vivo
measurement setup: Preemergence, 500 g ai/ha; 0 to 100 scale, 0 is no effect, 100 is complete control
measured attribute: Plant response rating, Corn
Answer as a number with no unit attached.

Cc1nn(-c2ccc(C(F)(F)F)cc2)nc1Oc1ccnc(OC(F)F)c1    0

## Task Param readout = Plant response rating, Corn; param system = corn (Zea mays); param query = Cc1nn(-c2ccc(C(F)(F)F)cc2)nc1Cn1cc(C(F)(F)F)nc1Cl ; response: value
## Result 10

## Task Param readout = Plant response rating, Corn; param system = corn (Zea mays); param query = Cc1nn(-c2ccc(F)cc2)nc1Cn1cc(C(F)(F)F)nc1Cl ; response: value
## Result 30

## Task Param readout = Plant response rating, Corn; param system = corn (Zea mays); param query = Cc1nn(-c2ccc(F)cc2)nc1Cn1c(Cl)nc(C(F)(F)F)c1Cl ; response: value
## Result 0

## Task Param readout = Plant response rating, Corn; param system = corn (Zea mays); param query = Fc1ccc(-n2nc(Cc3ccnc(C(F)(F)F)c3)c(OC(F)F)n2)cc1 ; response: value
## Result 30

## Task Param readout = Plant response rating, Corn; param system = corn (Zea mays); param query = Cc1nn(-c2ccc(F)cc2)nc1Oc1nccc(C(F)(F)F)n1 ; response: value
## Result 0

## Task Param readout = Plant response rating, Corn; param system = corn (Zea mays); param query = Cc1nn(-c2ccc(C(F)(F)F)cc2)nc1Oc1cccc(Cl)c1 ; response: value
## Result 0

## Task Param readout = Plant response rating, Corn; param system = corn (Zea mays); param query = Cc1nn(-c2cccc(C(F)(F)F)c2)nc1Oc1cc(C(F)(F)F)nn1C ; response: value
## Result 0

## Task Param readout = Plant response rating, Corn; param system = corn (Zea mays); param query = COc1nn(-c2ccc(C(F)(F)F)cc2)nc1Cn1cnc(C(F)(F)F)n1 ; response: value
## Result 0

## Task Param readout = Plant response rating, Corn; param system = corn (Zea mays); param query = Cc1nn(-c2ccc(F)c(F)c2)nc1Cc1ccnc(C(F)(F)F)c1 ; response: value
## Result 50

###

Tested on: velvetleaf (Abutilon theophrasti)
run description: Test A pre-/postemergence: velvetleaf
Format: in vivo
measurement setup: Postemergence, 500 g ai/ha; visual rating on 0 to 100 scale (0 no effect, 100 complete control), approximately ten days
Lab note: compare Velvetleaf plant response rating against 50. Equal or greater, write t. Smaller, write f.

Cc1nn(-c2ccc(C(F)(F)F)cc2)nc1Cn1cc(C(F)(F)F)cn1    f
Cc1nn(-c2ccc(C(F)(F)F)cc2)nc1Oc1cccc(OC(F)(F)F)c1    f
Cc1nn(-c2ccc(C(F)(F)F)cn2)nc1Oc1ccnc(C(F)(F)F)c1    t
Cc1nn(-c2ccnc(Cl)c2)nc1Cc1ccnc(C(F)(F)F)c1    t
Cc1nn(-c2ccc(C(F)F)cn2)nc1C(=O)c1cccc(C(F)(F)F)c1    f
Cc1nn(-c2ccc(C(F)(F)F)cc2)nc1Cn1cc(C(F)(F)F)nc1Cl    t
CCc1nn(-c2ccc(C(F)(F)F)cc2)nc1Cc1ccnc(C(F)(F)F)c1    t
Cc1ccc(-n2nc(C)c(C(=O)c3cccc(C(F)(F)F)c3)n2)cc1    t
FC(F)Oc1nn(-c2ccc(C(F)(F)F)cc2)nc1Cc1ccnc(C(F)(F)F)c1    t
Cc1nn(-c2ccc(C(F)(F)F)cc2)nc1Oc1ccnc(C(F)(F)F)c1    t

## Task Does FCc1nn(-c2ccc(F)cc2)nc1Oc1ccnc(C(F)(F)F)c1 have a reported Velvetleaf plant response rating of at least 50?
## Result t

###

Readings of Plant response rating, Foxtail, Giant for the listed molecules
Test system: foxtail, giant (giant foxtail, Setaria faberii)
run description: Test C pre-/postemergence: foxtail, giant
Type: in vivo
measurement setup: Postemergence, 31 g ai/ha; scale 0 to 100 (0 no effect, 100 complete control)
Answer as a number with no unit attached.

Example results:
COc1nn(-c2ccc(C(F)(F)F)cc2)nc1Cc1ccnc(C(F)F)c1 [Compound 138]    20
CCc1nn(-c2ccc(C(F)(F)F)cc2)nc1Oc1ccnc(C(F)(F)F)c1 [Compound 169]    20
FC(F)Oc1nn(-c2ccc(C(F)(F)F)cc2)nc1Cc1ccnc(C(F)(F)F)c1 [Compound 26]    25
CCc1nn(-c2ccc(C(F)(F)F)cc2)nc1Cc1ccnc(C(F)(F)F)c1 [Compound 155]    15
CCCc1nn(-c2ccc(F)cc2)nc1Oc1ccnc(C(F)(F)F)c1 [Compound 168]    55
Cc1nn(-c2ccc(C(F)(F)F)cn2)nc1Oc1ccnc(C(F)(F)F)c1 [Compound 23]    15
CCOc1nn(-c2ccc(C(F)(F)F)cc2)nc1Cc1ccnc(C(F)(F)F)c1 [Compound 164]    10
COc1nn(-c2ccc(C(F)(F)F)cc2)nc1Cc1ccnc(C(F)(F)F)c1 [Compound 15]    10

## Task So what does the record say about Plant response rating, Foxtail, Giant for FC(F)(F)COc1nn(-c2ccc(C(F)(F)F)cc2)nc1Cc1ccnc(C(F)(F)F)c1 [Compound 14] ?
## Result 10

## Task So what does the record say about Plant response rating, Foxtail, Giant for FCc1nn(-c2ccc(F)cc2)nc1Oc1ccnc(C(F)(F)F)c1 [Compound 160] ?
## Result 20

###

Tested on: bromegrass, downy (downy bromegrass, Bromus tectorum)
run description: Test C pre-/postemergence: bromegrass, downy
Type: in vivo
measurement setup: Preemergence, 125 g ai/ha; scale 0 to 100, 0 no effect, 100 complete control
Lab note: compare Plant response rating, Bromegrass, Downy against 50. Equal or greater, write Criterion met. Smaller, write Criterion not met.

Illustrative cases are given below, each with its answer.
FC(F)(F)COc1nn(-c2ccc(C(F)(F)F)cc2)nc1Cc1ccnc(C(F)(F)F)c1 [Compound 14]    Criterion met
Cc1nn(-c2ccc(C(F)(F)F)cn2)nc1Cc1cccc(C(F)(F)F)c1 [Compound 106]    Criterion not met
Cc1nn(-c2ccc(C(F)(F)F)cn2)nc1Oc1ccnc(C(F)(F)F)c1 [Compound 23]    Criterion not met

## Task Does COc1nn(-c2ccc(C(F)(F)F)cc2)nc1Cc1ccnc(C(F)(F)F)c1 [Compound 15] have a reported Plant response rating, Bromegrass, Downy of at least 50?
## Result Criterion met

###

Test system: field violet (Viola arvensis)
run description: Test D pre-/postemergence: field violet
Assay type: in vivo
measurement setup: Postemergence, 250 g ai/ha; scale 0 to 100 (0 no effect, 100 complete control)
Readings of Plant response rating: Field Violet for the listed compounds
Answer as a number with no unit attached.

Example results:
FC(F)(F)COc1nn(-c2ccc(C(F)(F)F)cc2)nc1Cc1ccnc(C(F)(F)F)c1 [Compound 14]    100
COc1nn(-c2ccc(C(F)(F)F)cc2)nc1Cc1ccnc(C(F)F)c1 [Compound 138]    90
COc1nn(-c2ccc(C(F)(F)F)cc2)nc1Cc1ccnc(C(F)(F)F)c1 [Compound 15]    100
Cc1nn(-c2ccc(C(F)(F)F)cc2)nc1Oc1ccnc(C(F)(F)F)c1 [Compound 120]    100

## Task So what does the record say about Plant response rating: Field Violet for Cc1nn(-c2ccc(C(F)(F)F)cn2)nc1Oc1ccnc(C(F)(F)F)c1 [Compound 23] ?
## Result 80
